Hey, just so you know, these numbers are from ChEMBL document CHEMBL2069268.

- TARGET OR TEST SYSTEM: Delta-type opioid receptor (Homo sapiens)
- ASSAY TEXT: Agonist activity at human delta opioid receptor expressed in HEK cells assessed as induction of intracellular calcium release by FLIPR assay
- Format: functional, cell-based
- CONDITION NOTES: HEK293
The source made the active and inactive calls. The rule behind the calls is not given here.
// allowed return values: 1.0 = active, 0.0 = inactive

INSERT INTO results (molecular_string, category) VALUES
  ('O=C(N[C@@H]1CC[C@@]2(O)[C@H]3Cc4ccc(O)c5c4[C@@]2(CCN3CC2CC2)[C@H]1O5)c1ccc2cc(F)ccc2c1', 1.0);

What classification did `O=C(N[C@@H]1CC[C@@]2(O)[C@H]3Cc4ccc(O)c5c4[C@@]2(CCN3CC2CC2)[C@H]1O5)c1cccc2ncccc12` end up with in this test? 0.0

What classification did `O=C(N[C@@H]1CC[C@@]2(O)[C@H]3Cc4ccc(O)c5c4[C@@]2(CCN3CC2CC2)[C@H]1O5)c1nccc2ccccc12` end up with in this test? 0.0

What classification did `COc1cc2ccccc2cc1C(=O)N[C@@H]1CC[C@@]2(O)[C@H]3Cc4ccc(O)c5c4[C@@]2(CCN3CC2CC2)[C@H]1O5` end up with in this test? 1.0

What classification did `O=C(N[C@@H]1CC[C@@]2(O)[C@H]3Cc4ccc(O)c5c4[C@@]2(CCN3CC2CC2)[C@H]1O5)c1cnc2ccccc2n1` end up with in this test? 0.0

What classification did `CN(C(=O)c1ccc2ccccc2c1)[C@@H]1CC[C@@]2(O)[C@H]3Cc4ccc(O)c5c4[C@@]2(CCN3CC2CC2)[C@H]1O5` end up with in this test? 1.0

----------
- TARGET OR TEST SYSTEM: Opioid receptors; mu & kappa (Homo sapiens) (UniProt P41145+P35372)
- Sequence (P35372 whole entry, looked up): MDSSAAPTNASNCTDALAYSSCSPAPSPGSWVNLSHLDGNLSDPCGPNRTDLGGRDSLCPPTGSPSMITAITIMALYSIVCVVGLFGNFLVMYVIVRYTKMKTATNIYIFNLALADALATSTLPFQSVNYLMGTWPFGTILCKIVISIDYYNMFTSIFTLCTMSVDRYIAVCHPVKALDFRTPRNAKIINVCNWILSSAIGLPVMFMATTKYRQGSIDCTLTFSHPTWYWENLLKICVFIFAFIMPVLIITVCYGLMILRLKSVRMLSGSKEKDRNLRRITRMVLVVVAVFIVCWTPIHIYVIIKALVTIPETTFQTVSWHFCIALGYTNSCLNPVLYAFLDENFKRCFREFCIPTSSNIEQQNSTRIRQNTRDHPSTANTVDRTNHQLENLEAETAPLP
- Sequence (P41145 whole entry, looked up): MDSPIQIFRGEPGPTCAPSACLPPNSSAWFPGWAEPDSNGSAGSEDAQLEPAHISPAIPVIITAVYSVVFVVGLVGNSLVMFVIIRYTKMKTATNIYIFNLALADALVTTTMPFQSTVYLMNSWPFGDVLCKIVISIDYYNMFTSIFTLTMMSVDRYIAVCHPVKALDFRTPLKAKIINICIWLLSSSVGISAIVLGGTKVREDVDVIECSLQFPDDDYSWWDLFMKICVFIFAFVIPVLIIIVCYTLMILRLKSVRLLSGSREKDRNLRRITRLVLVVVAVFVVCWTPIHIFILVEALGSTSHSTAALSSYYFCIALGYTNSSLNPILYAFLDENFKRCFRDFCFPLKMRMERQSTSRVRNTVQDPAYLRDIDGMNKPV
- ASSAY TEXT: Agonist activity at human mu-kappa opioid receptor expressed in HEK cells assessed as induction of intracellular calcium release by FLIPR assay
- Assay type: functional, cell-based
- CONDITION NOTES: HEK293
The source made the active and inactive calls. The rule behind the calls is not given here.
// allowed return values: active, inactive

INSERT INTO measurements (molecular_string, category) VALUES
  ('O=C(N[C@@H]1CC[C@@]2(O)[C@H]3Cc4ccc(O)c5c4[C@@]2(CCN3CC2CC2)[C@H]1O5)c1cnc2ccccc2n1', 'active'),
  ('O=C(N[C@@H]1CC[C@@]2(O)[C@H]3Cc4ccc(O)c5c4[C@@]2(CCN3CC2CC2)[C@H]1O5)c1cccc2ccccc12', 'active'),
  ('O=C(N[C@@H]1CC[C@@]2(O)[C@H]3Cc4ccc(O)c5c4[C@@]2(CCN3CC2CC2)[C@H]1O5)c1nccc2ccccc12', 'active');

What classification did `O=C(N[C@H]1CC[C@@]2(O)[C@H]3Cc4ccc(O)c5c4[C@@]2(CCN3CC2CC2)[C@H]1O5)c1ccc2ccccc2c1` end up with in this test? inactive

What classification did `CN(C(=O)c1ccc2ccccc2c1)[C@@H]1CC[C@@]2(O)[C@H]3Cc4ccc(O)c5c4[C@@]2(CCN3CC2CC2)[C@H]1O5` end up with in this test? inactive

What classification did `Cl.O=C(N[C@@H]1CC[C@@]2(O)[C@H]3Cc4ccc(O)c5c4[C@@]2(CCN3CC2CC2)[C@H]1O5)c1ccc2ccccc2c1` end up with in this test? active
